- ASSAY METHOD TEXT: cAMP Responsive Elements (CRE) small molecule antagonists, cell-based qHTS assay: qHTS cell viability counter screen (AID 2060913); note: % is set by controls: 0 for no effect and ±100 for the full control effect; nearly all actives have a fitted effect of over 40% in size
- CONDITION PARAMETERS: CRE-bla HEK293T viability, CellTiter-Glo luminescence, 5 h; series mostly up to 92.4 µM
Inconclusive results are not listed. Calls of active or inactive are those of the source. Calls come from the whole dose curve; as a rule, active = well fitted cell-killing curve with a large enough effect in the repeat runs; inconclusive = weak or mixed curves, or effect the other way; inactive = flat fitted curve, though single readings scatter.

{"columns": ["MOLECULE", "viability change, negative = cytotoxic"],
 "data": [
  ["C=CC(C)CCC=C(C)C (stereo not given)", "inactive"],
  ["O=Cc1ccc(Cl)cc1", "inactive"],
  ["O=C(CCCCCCCCc1cccnc1)N1CCC(C=C(c2ccccc2)c2ccccc2)CC1", "inactive"],
  ["CCOc1ccccc1OCCN[C@H](C)Cc1ccc(OC)c(S(N)(=O)=O)c1", "inactive"],
  ["NCC(=O)O", "-2.51% [at 18.9 µM] (inactive)"]
]}

* * *

- ASSAY METHOD TEXT: cAMP Responsive Elements (CRE) small molecule agonists, cell-based qHTS assay: qHTS cell viability counter screen (AID 2060914);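 note: viability read after 3 h of compound exposure; nearly all actives have a fitted effect of over 50% in size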; for activity change, negative = cytotoxicity: % is set by controls: 0 for no effect and ±100 for the full control effect
- CONDITION PARAMETERS: CRE-bla HEK293T viability, CellTiter-Glo luminescence, 5 h; series mostly up to 92.4 µM
Records with an inconclusive call do not appear. Activity calls are given as the source filed them. Calls follow the shape of the dose curve; as a rule, active = well fitted cell-killing curve with a large enough effect in the repeat runs; inconclusive = weak or mixed curves, or effect the other way; inactive = flat fitted curve, though single readings scatter.
METRIC NAME: activity change, negative = cytotoxicity

{"columns": ["CHEMICAL STRUCTURE", "METRIC NAME", "READING"],
 "data": [
  ["CCC(=O)OC(=O)CC", "activity change, negative = cytotoxicity", "inactive"],
  ["c1ccc(Sc2ccccc2)cc1", "activity change, negative = cytotoxicity", "inactive"],
  ["CCC(C)(C)CC", "activity change, negative = cytotoxicity", "inactive"]
]}

* * *

- ASSAY METHOD TEXT: cAMP Responsive Elements (CRE) small molecule agonists, cell-based qHTS assay: qHTS cell viability counter screen (AID 2060914); note: potency is the fitted concentration of half-maximal effect;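 note: viability read after 3 h of compound exposure; nearly all actives have a fitted effect of over 50% in size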
- CONDITION PARAMETERS: CRE-bla HEK293T viability, CellTiter-Glo luminescence, 5 h; series mostly up to 92.4 µM
Inconclusive results are not listed. Calls of active or inactive are those of the source. Calls follow the shape of the dose curve; as a rule, active = well fitted cell-killing curve with a large enough effect in the repeat runs; inconclusive = weak or mixed curves, or effect the other way; inactive = flat fitted curve, though single readings scatter.
METRIC NAME: Potency

{"columns": ["MOLECULE", "METRIC NAME", "READING"],
 "data": [
  ["Nc1cnn([C@@H]2O[C@H](CO)[C@@H](O)[C@H]2O)c(=O)n1", "Potency", "0.97 µM (active)"],
  ["CCCCCCCCCCCCCC[N+](C)(C)C", "Potency", "52.7 µM (active)"],
  ["Cc1c(C)c2c(c(C)c1OC(=O)CCC(=O)OCCO)CC[C@@](C)(CCC[C@H](C)CCC[C@H](C)CCCC(C)C)O2", "Potency", "26.6 µM (active)"],
  ["CC[C@H](C)C(=O)O[C@H]1C[C@H](O)C=C2C=C[C@H](C)[C@H](CC[C@@H](O)C[C@@H](O)CC(=O)O)[C@H]21", "Potency", "5.45 µM (active)"],
  ["CCCCCCCCn1sc(Cl)c(Cl)c1=O", "Potency", "43.3 µM (active)"],
  ["CCCCCCCC[N+](CCCCCCCC)(CCCCCCCC)CCCCCCCC", "Potency", "30.6 µM (active)"],
  ["O=C(Nc1ccc(Cl)cc1)Nc1ccc(Cl)c(C(F)(F)F)c1", "Potency", "23.7 µM (active)"],
  ["Cc1cc(O)c(C(C)(C)C)cc1C(C)(C)C", "Potency", "48.6 µM (active)"],
  ["CCCCCCCCCCCCCCCCCC[N+](C)(C)Cc1ccccc1", "Potency", "55 µM (active)"],
  ["COc1ccccc1NC(=O)c1cc2ccccc2cc1O", "Potency", "30.6 µM (active)"],
  ["Cc1cc2c(C(C)C)c(O)c(O)c(C=O)c2c(O)c1-c1c(C)cc2c(C(C)C)c(O)c(O)c(C=O)c2c1O", "Potency", "26.6 µM (active)"],
  ["O=c1cc(-c2ccccc2)oc2ccc3ccccc3c12", "Potency", "21.7 µM (active)"],
  ["CCCCCCCCCCn1cc[n+](CCCCCCCCCC)c1C", "Potency", "48.6 µM (active)"],
  ["CC1=NN(c2cc(Cl)c(S(=O)(=O)O)cc2Cl)C(=O)C1N=Nc1ccc(S(=O)(=O)O)cc1 (centres undefined)", "Potency", "2.43 µM (active)"]
]}

Hello, the source for this data is PubChem BioAssay (Tox21), in case you need it.
